# Tested on: Streptococcus pyogenes
# experimental protocol: Minimum inhibitory concentration required against Gram-positive Streptococcus pyogenes
# Type: functional

# compound, experimental target, comparator, MIC (µg/mL)
records = [
    ("NCC1CCN(c2cc3c(cc2F)c(=O)n(O)c(=O)n3C2CC2)C1 (stereo not drawn)", "Streptococcus pyogenes", "=", 2),
    ("CN1CC2CN(c3cc4c(cc3F)c(=O)n(O)c(=O)n4C3CC3)CC2C1 (stereo not drawn)", "Streptococcus pyogenes", "=", 32),
    ("O=c1c2cc(F)c(N3CCCC3)cc2n(-c2ccc(F)cc2F)c(=O)n1O", "Streptococcus pyogenes", "=", 32),
    ("O=c1c2cc(F)c(N3CCC(CNCC(F)(F)F)C3)cc2n(C2CC2)c(=O)n1O (stereo not drawn)", "Streptococcus pyogenes", "=", 16),
    ("O=C(O)c1cn(C2CC2)c2cc(N3CCNCC3)c(F)cc2c1=O [CIPROFLOXACIN]", "Streptococcus pyogenes", "=", 2),
    ("Cn1c(=O)n(O)c(=O)c2cc(F)c(N3CCCC3)cc21", "Streptococcus pyogenes", ">", 64),
    ("O=c1[nH]c2cc(N3CCCC3)c(F)cc2c(=O)n1O", "Streptococcus pyogenes", "=", 32),
    ("NC1CN(c2cc3c(cc2F)c(=O)n(O)c(=O)n3C2CC2)C1", "Streptococcus pyogenes", ">", 64),
]

* * *

# Tested on: Escherichia coli
# experimental protocol: Minimum inhibitory concentration required against Gram-negative Escherichia coli TLC
# Assay type: functional
measurement name: MIC (µg/mL)

# mol smiles, measurement name, reading
records = [
    ("C[C@H](N)[C@@H]1CCN(c2cc3c(cc2F)c(=O)n(O)c(=O)n3C2CC2)C1", "MIC", 0.12),
    ("O=c1c2cc(F)c(-n3ccnc3)cc2n(C2CC2)c(=O)n1O", "MIC", 2),
    ("N[C@H]1CCN(c2c(F)cc3c(=O)n(O)c(=O)n(C4CC4)c3c2F)C1", "MIC", 1),
    ("O=c1c2cc(F)c(N3CCCC3)cc2n(Cc2ccccc2)c(=O)n1O", "MIC", 16),
]
